Target: Human ALDH3A1 (Homo sapiens, UniProt P30838)
Sequence (P30838 1-453): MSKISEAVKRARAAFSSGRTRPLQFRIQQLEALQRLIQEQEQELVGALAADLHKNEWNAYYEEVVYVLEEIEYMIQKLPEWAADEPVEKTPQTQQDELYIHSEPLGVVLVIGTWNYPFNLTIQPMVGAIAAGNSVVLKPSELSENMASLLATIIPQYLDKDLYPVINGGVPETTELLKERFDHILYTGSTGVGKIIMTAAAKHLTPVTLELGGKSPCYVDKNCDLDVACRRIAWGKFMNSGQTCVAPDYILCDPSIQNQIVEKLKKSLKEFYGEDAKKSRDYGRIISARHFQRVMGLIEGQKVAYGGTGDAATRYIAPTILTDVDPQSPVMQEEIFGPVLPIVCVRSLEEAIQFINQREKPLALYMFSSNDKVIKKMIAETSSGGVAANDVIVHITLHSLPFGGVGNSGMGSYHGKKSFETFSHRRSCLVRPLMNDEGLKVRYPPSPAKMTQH
Experiment: ALDH3A1 biochemical assay (benzaldehyde/NADP+, diaphorase-resazurin readout, 1,536-well)
Conditions: Table S5, biochemical curve class
Record T whenever CC-v2 is at -1 or higher; record F when lower.

Entry Cc1ccc(-c2cccc(CNC(=O)c3csc(N4CCN(c5cccc(C(F)(F)F)c5)CC4)n3)c2)cc1 : is its CC-v2 no less than -1?
F

Entry Cc1cccc(COc2ccc(CNC(=O)c3csc(N4CCN(c5cccc(C(F)(F)F)c5)CC4)n3)cc2)c1 : is its CC-v2 no less than -1?
T

Entry O=C(Nc1ccc(CNC(=O)c2csc(N3CCN(c4cccc(C(F)(F)F)c4)CC3)n2)cc1)c1ccncc1 : is its CC-v2 no less than -1?
T

Entry C[S+](=O)([O-])c1cccc(CNC(=O)c2csc(N3CCN(c4cccc(C(F)(F)F)c4)CC3)n2)c1 : is its CC-v2 no less than -1?
F

Entry O=C(NCc1ccc2cc(Cl)ccc2c1)c1csc(N2CCN(c3cccc(C(F)(F)F)c3)CC2)n1 : is its CC-v2 no less than -1?
F

Entry Cc1cc(CNC(=O)c2csc(N3CCN(c4cccc(C(F)(F)F)c4)CC3)n2)ccc1Cl : is its CC-v2 no less than -1?
F

Entry O=C(NCc1cccc([S+](=O)([O-])C(F)(F)F)c1)c1csc(N2CCN(c3cccc(C(F)(F)F)c3)CC2)n1 : is its CC-v2 no less than -1?
F

Entry O=C(NCc1cccc(CC(F)(F)F)c1)c1csc(N2CCN(c3cccc(C(F)(F)F)c3)CC2)n1 : is its CC-v2 no less than -1?
F

Entry O=C(NCc1ccc(Cl)c(F)c1)c1csc(N2CCN(c3cccc(C(F)(F)F)c3)CC2)n1 : is its CC-v2 no less than -1?
F

Entry O=C(NCc1ccc(Oc2ccc(F)cc2)cc1)c1csc(N2CCN(c3cccc(C(F)(F)F)c3)CC2)n1 : is its CC-v2 no less than -1?
F

Entry Cc1cc(CNC(=O)c2csc(N3CCN(c4cccc(C(F)(F)F)c4)CC3)n2)cc(C)c1Br : is its CC-v2 no less than -1?
F

Entry O=C(NCc1ccc2c(c1)CNC2=O)c1csc(N2CCN(c3cccc(C(F)(F)F)c3)CC2)n1 : is its CC-v2 no less than -1?
F

Entry O=C(NCc1cccc(C2CC2)c1)c1csc(N2CCN(c3cccc(C(F)(F)F)c3)CC2)n1 : is its CC-v2 no less than -1?
F

Entry O=C(Nc1ccncc1)c1ccc(CNC(=O)c2csc(N3CCN(c4cccc(C(F)(F)F)c4)CC3)n2)cc1 : is its CC-v2 no less than -1?
T

Entry N#Cc1ccc(CNC(=O)c2csc(N3CCN(c4cccc(C(F)(F)F)c4)CC3)n2)cc1F : is its CC-v2 no less than -1?
F
